Where these numbers come from: the pKa sets of Baltruschat and Czodrowski (2020)

# Recorded conditions: basic group
Give pKa for every item shown.
# answer = number (no unit)

Exam item: What value of pKa has been reported for the following compound? `CCCCNCCC(=O)[O-]`
Marked response: 10.6

Exam item: Continue with CCCN(CCO)CC(O)CC (stereo unspecified)
Marked response: 9

Exam item: Continue with `CCc1cccc(/N=N/c2ccc(N(C)C)cc2)c1`
Marked response: 2.16

Exam item: Continue with `CN1[C@@H]2CC[C@H]1C[C@H](O)C2`
Marked response: 10.3

Exam item: Continue with `COc1ccc2c3c1O[C@H]1[C@@H](O)C=C[C@H]4[C@@H](C2)N(CCC#N)CC[C@@]341`
Marked response: 5.68

Exam item: Continue with `CNOC`
Marked response: 4.75

Exam item: Continue with NCC(O)CO (stereo unspecified)
Marked response: 9.3

Exam item: Continue with `CN(CCC[NH+](C)C)CCC[NH+](C)C`
Marked response: 6.4

Exam item: Continue with `CCCn1ccnc1C=O`
Marked response: 5.15

Exam item: Continue with `c1ccc2cc(NCC[NH2+]c3ccc4ccccc4c3)ccc2c1`
Marked response: 1.8

Exam item: Continue with `Nc1cccc(-c2ccccn2)n1`
Marked response: 5.8

Exam item: Continue with `COC(=N)N`
Marked response: 9.72

Exam item: Continue with `CCOP(=O)(CN1CCOCC1)OCC`
Marked response: 4

Exam item: Continue with `COc1ccncn1`
Marked response: 2.5

Exam item: Continue with Cc1cccc(C2NCCS2)c1 (stereo unspecified)
Marked response: 5.26

Exam item: Continue with `NCCCNCCC[NH3+]`
Marked response: 9.72

Exam item: Continue with `CCc1ccnc2c1ccc1c(CC)ccnc12`
Marked response: 5.6

Exam item: Continue with `Cc1ccc(NC(=O)CN2CCCCC2)c(C)c1`
Marked response: 7.8

Exam item: Continue with `CN(C)CCC(c1ccccc1)c1ccccc1`
Marked response: 9.4

Exam item: Continue with `Nc1cc(N)c2ccccc2n1`
Marked response: 9.45

Exam item: Continue with `Cc1nc(N)nc(N)n1`
Marked response: 4.59
